- Method Summary: VP16 transactivation inhibitors, counter-screen for SRC1 inhibitor project, cell-based, luminescence, high throughput (AID 588824)
- Condition Details: cell-based VP16 transactivation luciferase luminescence; at 3.6 µM
Active and inactive are the calls of the source. Rule as the data show it: active = inhibition above about 25%; inactive = the rest.
Returns: one label drawn from active, inactive

Would you please look over these solved cases?
O=C(NC(NC(=S)N1CCOCC1)C(Cl)(Cl)Cl)c1ccc(Cl)cc1 (stereo not given)    inactive
COc1cccc(-c2ccc3ncnc(NCc4ccc5c(c4)OCO5)c3c2)c1    active
Cc1[nH]ccc2cc3nc4ccccc4c3cc12    active
CN(Cc1cnc2nc(N)nc(N)c2n1)c1ccc(C(=O)N[C@@H](CCC(=O)O)C(=O)O)cc1    inactive
COc1ccc(-c2noc(CCCCC(=O)N3CCN(c4cc(C)ccc4C)CC3)n2)cc1    active

**Q:** Given Cc1oc2c(Cl)c(Cl)c(O)c(CN(C)C)c2c1C(=O)c1ccc(Cl)cc1 , state the outcome it received in this test.
**A:** active

**Q:** Given Cn1c(=O)c2[nH]c(COc3ccc(C(C)(C)C)cc3)nc2n(C)c1=O , state the outcome it received in this test.
**A:** inactive

**Q:** Given COc1ccc(Cl)cc1NC(=O)Nc1ccccc1C(N)=O , state the outcome it received in this test.
**A:** inactive

**Q:** Given O=C(COc1ccc(F)cc1Cl)Nc1ccc(N2CCOCC2)cc1N1CCOCC1 , state the outcome it received in this test.
**A:** inactive

**Q:** Given Cc1ccc(C2C3=C(CC(C)(C)CC3=O)OC3=C2C(=O)CC(C)(C)C3)cc1 , state the outcome it received in this test.
**A:** inactive

---

- Method Summary: inhibitors of full-length beta-lactamase reporter, confirmation, artefact control for TLR4-MyD88 binding inhibitor project, cell-based, HeLa, full-length BLA, CCF4 FRET ratio (AID 1237);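 also: HeLa cells stably expressing beta-lactamase reporter as counterscreen for TLR4-MyD88 inhibitors; 0% = DMSO and 100% = clavulanic acid full inhibition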
- Condition Details: at 8.4 µM
This is one part of the list. The source made the active and inactive calls.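 Rule for the calls: active = mean inhibition over three repeats above about 26% taken from the earlier screen (limit read from the data); inactive = the rest.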
Returns: one label drawn from active, inactive

CCc1ccc2c(c1)C1(NN=C(c3ccccc3)S1)C(=O)N2 (stereo not drawn)    inactive
CCCCCCCCn1c2c(c(=N)c3c1CCC3)CCCC2    active
O=C(Nc1ccccc1Cl)/C(Cl)=C(\Cl)S(=O)c1ccccc1 (stereo not drawn)    inactive
COC(=O)Cc1cc(=O)n(-c2nc3ccccc3s2)[nH]1    inactive
O=C1c2cccc3c([N+](=O)[O-])ccc(c23)C(=O)N1CC1CCCO1 (stereo not drawn)    active

**Q:** Given O=C(/C=C/c1ccc(N2CCOCC2)cc1)c1ccccc1 , state the outcome it received in this test.
**A:** active

**Q:** Given Cc1nc(Cl)c2oc3ccccc3c2n1 , state the outcome it received in this test.
**A:** inactive

**Q:** Given CCN(CC)c1ccc2oc(=O)c(C)nc2c1 , state the outcome it received in this test.
**A:** inactive

---

- Method Summary: VP16 transactivation reporter inhibitors, counter-screen for LRH-1 inverse agonist project, cell-based, luminescence, high throughput (AID 651615)
- Condition Details: Gal4-VP16 luciferase reporter cells, at 3.6 µM, hits give high values
Endpoint Name: inhibition (%)
Your answer is read as %, so omit the unit and give the number.

**Q:** Identify measured inhibition corresponding to NC(=S)N/N=C/c1ccc([N+](=O)[O-])cc1
**A:** -3.22

**Q:** Identify measured inhibition corresponding to COc1cc2c(OC(C)=O)c3c(c(-c4ccc5c(c4)OCO5)c2cc1OC)C(=O)OC3
**A:** 34.7

**Q:** Identify measured inhibition corresponding to N#CCCn1cc(/C=N/NC(N)=S)c(-c2ccc(-c3ccccc3)cc2)n1
**A:** -9.84

**Q:** Identify measured inhibition corresponding to CS(=O)(=O)c1ccc2nc(NC(=O)C3CC(=O)N(c4ccccc4)C3)sc2c1 (stereo not given)
**A:** 11.3

**Q:** Identify measured inhibition corresponding to CCc1c(C)nc(SCC(=O)Nc2ccc3c(c2)OCCO3)[nH]c1=O
**A:** -6.83
